# subject of test: 5-hydroxytryptamine receptor 2C (Homo sapiens)
# Sequence (P28335 whole entry): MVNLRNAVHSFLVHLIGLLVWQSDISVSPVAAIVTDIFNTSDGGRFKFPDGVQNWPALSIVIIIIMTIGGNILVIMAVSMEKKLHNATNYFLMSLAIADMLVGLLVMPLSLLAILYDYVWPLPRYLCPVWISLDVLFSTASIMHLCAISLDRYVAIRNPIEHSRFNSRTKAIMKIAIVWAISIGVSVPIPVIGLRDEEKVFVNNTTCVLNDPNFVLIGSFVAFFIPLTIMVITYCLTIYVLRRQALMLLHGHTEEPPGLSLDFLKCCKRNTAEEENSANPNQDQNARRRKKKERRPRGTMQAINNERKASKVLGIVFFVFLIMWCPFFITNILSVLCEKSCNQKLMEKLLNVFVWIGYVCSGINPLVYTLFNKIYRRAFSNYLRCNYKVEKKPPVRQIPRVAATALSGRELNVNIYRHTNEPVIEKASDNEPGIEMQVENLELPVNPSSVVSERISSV
# assay text: Agonist activity at unedited 5-HT2C receptor (unknown origin) expressed in HEK293 cells assessed as [3H]inositol phosphate accumulation after 2 hrs by scintillation counting
# Format: functional, cell-based
# condition description: read-out: EC50
property: pEC50
// returns pEC50 (minus log10 of molar concentration), number only

Item c1ccc2c(c1)CCC1CCNCCCN21 (stereo unspecified) : provide pEC50
6.89

###

# subject of test: 5-HT2B receptor (Homo sapiens, UniProt P41595)
# Sequence (P41595 whole entry): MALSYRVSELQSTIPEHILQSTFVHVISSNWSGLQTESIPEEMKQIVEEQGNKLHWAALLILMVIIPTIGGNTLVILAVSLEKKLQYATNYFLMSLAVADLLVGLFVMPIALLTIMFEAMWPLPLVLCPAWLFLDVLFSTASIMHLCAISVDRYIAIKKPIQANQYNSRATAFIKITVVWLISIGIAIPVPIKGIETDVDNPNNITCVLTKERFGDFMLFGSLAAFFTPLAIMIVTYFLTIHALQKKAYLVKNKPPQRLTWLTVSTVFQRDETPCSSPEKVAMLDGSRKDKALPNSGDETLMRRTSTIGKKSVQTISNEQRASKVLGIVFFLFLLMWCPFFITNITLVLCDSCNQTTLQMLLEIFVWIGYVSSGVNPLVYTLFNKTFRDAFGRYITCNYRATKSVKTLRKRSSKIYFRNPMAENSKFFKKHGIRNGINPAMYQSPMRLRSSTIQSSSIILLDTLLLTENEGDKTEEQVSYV
# assay text: Agonist activity at 5-HT2B receptor (unknown origin) expressed in HEK293 cells assessed as [3H]inositol phosphate accumulation at 10 uM after 2 hrs by scintillation counting relative to serotonin
# Format: cell-based
# condition description: HEK293 cells expressing 5-HT2B receptor
With a cut-off of 60%, any Emax at 2 h, 10 µM strictly below it is called true; any Emax at 2 h, 10 µM meeting it or above is called false.

As a guide, the following entries are already answered.
- compound: "Fc1ccc2c(c1Cc1ccccc1)CC[C@@H]1CNCCCN21"
  group: "false"
- compound: "Fc1ccc2c(c1Cc1ccccc1)CCC1CNCCN21 (stereo not drawn)"
  group: "true"
- compound: "Clc1cccc(N2CCNCC2)c1"
  group: "true"

A record lists Fc1ccc2c(c1Cl)N1CCNCC1CC2 (stereo not drawn) . Is its Emax at 2 h, 10 µM below 60%?
true

Strictly below 60% in Emax at 2 h, 10 µM? COc1cccc2c1CC[C@@H]1CNCCCN21
false

Below 60% on Emax at 2 h, 10 µM? Entry c1cc(C2CCC2)c2c(c1)N1CCNCC1CC2 (stereo not drawn)
false

Determine if COc1cc2c(c(Cl)c1Cl)N1CCCNC[C@H]1CC2 shows Emax at 2 h, 10 µM strictly lower than 60%.
true

Say whether its Emax at 2 h, 10 µM is strictly beneath 60%. Entry: COc1cc2c(cc1Cl)CC[C@@H]1CNCCCN21
false

Emax at 2 h, 10 µM under 60%? Item: c1ccc(Cc2cccc3c2CCC2CNCCN32)cc1 (stereo not drawn)
true

Please let me know if COc1cccc2c1N1CCCNC[C@H]1CC2 shows Emax at 2 h, 10 µM below 60%.
true

Quick check: does c1csc(Cc2cccc3c2CCC2CNCCN32)c1 (stereo not drawn) have Emax at 2 h, 10 µM under 60%?
true

###

# subject of test: 5-hydroxytryptamine receptor 2B (Homo sapiens, UniProt P41595)
# Sequence (P41595 whole entry): as above
# assay text: Displacement of [125I]DOI from recombinant human 5-HT2B receptor expressed in HEK293 cell membranes after 1 hr by scintillation counting
pKi overview
Scale note: pKi = -log10(concentration in M).

Would you please look over these solved cases?
- compound: "Fc1ccc2c(c1Cc1ccccc1)CCC1CNCCN21 (configuration not stated)"
  pKi: 7.90
- compound: "c1cc(Cc2ccc3c(c2)OCO3)c2c(c1)N1CCNCC1CC2 (configuration not stated)"
  pKi: 6.90
- compound: "CCCc1cccc2c1CCC1CNCCN21 (configuration not stated)"
  pKi: 7.60
- compound: "c1ccc(Cc2cccc3c2CCC2CNCCN32)cc1 (configuration not stated)"
  pKi: 7.40
- compound: "c1cc(CC2CCC2)c2c(c1)N1CCNCC1CC2 (configuration not stated)"
  pKi: 7.20

Give pKi for c1csc(Cc2cccc3c2CCC2CNCCN32)c1 (configuration not stated)
7.60

Please look at this compound and report its pKi: CC1(C)Cc2cccc(Cl)c2N2CCNCC21 (configuration not stated)
8.20
